biological target: T1, full-length recombinant human PAD4 (human, UniProt Q9UM07 1-663); assay: ELISA, human PAD4 on plate, antibody 0.25 ug/mL
T1 construct: also called peptidylarginine deiminase 4
T1 sequence (Q9UM07 whole entry): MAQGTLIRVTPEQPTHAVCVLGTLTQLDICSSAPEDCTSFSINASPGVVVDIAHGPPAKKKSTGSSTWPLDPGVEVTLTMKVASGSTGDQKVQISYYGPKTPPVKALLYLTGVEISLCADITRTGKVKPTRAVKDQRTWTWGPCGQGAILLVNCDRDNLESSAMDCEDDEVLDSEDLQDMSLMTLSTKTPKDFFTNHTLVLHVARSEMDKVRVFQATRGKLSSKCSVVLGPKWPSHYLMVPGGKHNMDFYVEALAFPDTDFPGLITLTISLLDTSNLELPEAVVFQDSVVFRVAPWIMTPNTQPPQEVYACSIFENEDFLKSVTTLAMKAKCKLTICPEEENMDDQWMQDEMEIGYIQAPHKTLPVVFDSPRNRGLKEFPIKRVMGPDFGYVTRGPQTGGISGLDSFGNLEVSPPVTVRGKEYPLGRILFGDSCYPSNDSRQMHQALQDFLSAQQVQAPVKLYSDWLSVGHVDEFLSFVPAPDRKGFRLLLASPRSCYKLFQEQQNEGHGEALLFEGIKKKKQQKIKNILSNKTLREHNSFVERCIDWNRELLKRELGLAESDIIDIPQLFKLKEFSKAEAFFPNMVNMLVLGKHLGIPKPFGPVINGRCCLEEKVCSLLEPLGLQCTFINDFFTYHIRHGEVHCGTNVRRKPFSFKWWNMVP
# absorbance 490 nm/630 nm per record follows
parameter: absorbance 490 nm/630 nm (OD)

{"binder": "G6 (antibody, IgG1, V domains shown, Chicken variable regions in mouse chimeric antibody (IgG1) expression vectors; also called anti-PAD4 antibody G6; A11 etc) VH: AVTLDESGGGLQTPGGALSLVCKASGFTFSSYGMEWVRQAPGKGLEYVAAIRNDGSWTGYGAAVKGRATISRDDGQSTLRLQLNNLRAEDTATYYCAKTTGSSGGSIDAWGHGTEVIVS VL: ASTQPSSVSANLGETVKITCSGGGNYYYGWYQQKSPGSAPVTLIYANDKRPSNIPSRFSGSKSGSTGTLTITGVQAEDEAVYFCGTADTGKYVFGAGTTLTVL", "measurement units": "OD", "observed measurement": 2.07}
{"binder": "G8 (antibody, IgG1, V domains shown, Chicken variable regions in mouse chimeric antibody (IgG1) expression vectors; also called anti-PAD4 antibody G8; A11 etc) VH: AVTLDESGGGLQTPGGALSLVCKASGFTFSTYAMGWMRQAPGKGLEYVAAIRNDGSWTGYGAAVKGRATILRDNGQSTVRLQLSNLRAEDTGTYYCAKYTGSSGGSIGAWGHGTEVIVS VL: ASTQPSSVSANLGGTVEITCSGGNRNYYYGWYQQKSPGSAPVTLIYANDKRPSNIPSRFSGSKSGSTGTLTITGVQAEDEAVYFCGTADTGKYVFGAGTTLTVL", "measurement units": "OD", "observed measurement": 2.1}
